Measured inhibition by item
# TEST TARGET: Solute carrier family 2, facilitated glucose transporter member 1 (Homo sapiens) (UniProt P11166)
# Sequence (P11166 whole entry): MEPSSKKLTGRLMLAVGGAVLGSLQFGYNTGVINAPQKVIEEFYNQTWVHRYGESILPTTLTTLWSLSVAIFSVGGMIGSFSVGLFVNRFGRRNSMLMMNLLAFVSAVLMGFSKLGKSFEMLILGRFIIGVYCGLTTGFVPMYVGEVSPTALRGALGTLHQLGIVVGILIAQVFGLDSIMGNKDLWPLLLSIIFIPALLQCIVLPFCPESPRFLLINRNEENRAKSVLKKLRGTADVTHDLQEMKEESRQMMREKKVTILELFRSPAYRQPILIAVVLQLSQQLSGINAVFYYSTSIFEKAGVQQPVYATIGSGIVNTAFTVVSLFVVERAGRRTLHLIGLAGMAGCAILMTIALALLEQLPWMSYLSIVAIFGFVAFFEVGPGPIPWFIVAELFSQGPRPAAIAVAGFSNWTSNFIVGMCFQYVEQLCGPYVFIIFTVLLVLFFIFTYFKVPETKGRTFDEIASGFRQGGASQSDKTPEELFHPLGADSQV
# PROCEDURE TEXT: ST_JUDE_LEISH: Cytotoxicity at 2uM final concentration against transgenic Leishmania Mexicana promastigotes LmGLUT1 that are glucose transport deficient and complemented with the human glucose transporter GLUT1. Activity is measured by DNA content using SYBR green in vitro
# Type: functional
// note: answer is a bare numeric in %

* Cc1cc(C2CCN(CCCCNC(=O)c3ccc(NC(=O)c4ccc(Cl)cc4)cc3)CC2)c(C)cc1OC(C)C | -1.59
* Cc1cccc(C(=O)Nc2ccc(N3CCCN(Cc4cccc(O)c4)CC3)cc2)c1 | 5.01
* O=c1cc(NCCCNCc2sc(Br)c(Br)c2Br)[nH]c2ccccc12 | 10.5
* CC(C)CCNC(=O)C1Cc2c([nH]c3cc(Br)ccc23)C2(CCN(Cc3ccccc3)CC2)N1 (stereo not given) | 15

response.value for CC1(C)N=C(N)N=C(N)N1OCc1cc(Cl)c(CON2C(N)=NC(N)=NC2(C)C)cc1Cl (field: inhibition) = 0.92

###

# TEST TARGET: Solute carrier family 2, facilitated glucose transporter member 1 (Homo sapiens) (UniProt P11166)
# PROCEDURE TEXT: ST_JUDE_LEISH: Cytotoxicity at 2uM final concentration against transgenic Leishmania Mexicana promastigotes LmGLUT1 that are glucose transport deficient and complemented with the human glucose transporter GLUT1. Activity is measured by DNA content using SYBR green in vitro
# Type: functional
Recorded measurements of inhibition, one per entry
Please give a number only; it is taken to be in %.

Answered examples (8):
• Cc1noc(C)c1-c1cccc(CNCc2cccc(-c3cccc(-c4nc5cccc(C)c5[nH]4)c3)c2)c1 = -0.61
• Cc1[nH]c(C)c(-c2ccc(-c3ccc(OCC(F)(F)F)cc3)nc2)c(=O)c1Cl = 5.76
• CN1CCN(CCCSc2ccc3c(c2)ncn3-c2cc(OCc3ccccc3C(F)(F)F)c(C(N)=O)s2)CC1 = 8.47
• COc1cccc(COCC(O)CN(CCc2ccccn2)C(=O)c2ccccc2F)c1 (centres undefined) = 2.13
• CN1CCN(Cc2ccc(-c3cc4nccc(Nc5ccc(Oc6ccccc6)cc5)c4cc3Cl)o2)CC1 = 1.96
• N#Cc1ccc(N/C(=N\c2cccc(Cl)c2Cl)NCc2ccc(Cl)cc2Cl)c(O)c1 = 9.71
• c1ccc(Cn2nnnc2-c2cccc(Nc3ccnc4cc(-c5nccs5)ccc34)c2)cc1 = 1.8
• NC(=O)c1cnc2cc(-c3ccoc3)ccc2c1Nc1ccc(NC(=O)Nc2ccccc2Cl)cc1 = 2.28

Measured inhibition, C(=NNc1nc2ccccc2[nH]1)c1ccccc1OCc1ccccc1 : 4.25

Per the record, O=C(Cc1cccc(O)c1)Nc1ccc(-c2cccc(-c3nc4cc(C(F)(F)F)ccc4[nH]3)c2)cc1 has inhibition of -0.18

The compound listed as O=C(Nc1ccsc1)Nc1cccc(-c2cccc(-c3nc4ccccc4[nH]3)c2)c1 has a reported inhibition of 9.79

Lab note: O=C(/C=C/c1ccc(Cl)c(Cl)c1)N1CCC(C(O)CN2CCC(c3c[nH]c4ccccc34)CC2)CC1 (centres undefined) gave inhibition of 2.18

The recorded inhibition for entry O=[N+]([O-])c1cccc(/C=N/Nc2ccnc3cc(F)ccc23)c1 equals 1.98

Recorded inhibition (compound CCCCCN1CCCC(NS(=O)(=O)c2ccc(C(=O)Nc3ccc(C(F)(F)F)cc3)cc2)C1 (centres undefined) ): 6.19

inhibition for OC(CN1c2ccccc2Sc2ccccc21)CN(C1CCCCC1)C1CCCCC1 (centres undefined) is 6.08

Just so you know, measured inhibition for CCCC(=O)Nc1ccc(Nc2nc(C)cc(N3CCCC3)n2)cc1 came out at 1.82

For reference, reported inhibition for c1cc(OCCN2CCCC2)ccc1CNC1CCN(CC2CCCCC2)CC1 stands at -3.76

Reported inhibition for NCCNc1ccc([N+](=O)[O-])cc1C(=O)Nc1cccc(C(F)(F)F)c1 was 3.02

Lookup result for CC(=O)N/N=C/[C@H](CCc1ccccc1)NC(=O)[C@H](CC(C)C)NC(=O)c1ccc(F)cc1 ; measured inhibition: 6.34

inhibition measured on O=C(Nc1ccc(-n2ccc(C(F)(F)F)n2)cc1)c1cccs1 = 0.18

Cc1cc(NC(=O)NCCN2CCC(NS(=O)(=O)c3ccccc3Cl)C2)c2ccccc2n1 (centres undefined) has a reported inhibition of -2.1

inhibition reported for this compound Cc1ccc(N2C(N)=NC(N)=NC2(C)C)cc1Cl : 11.4

Just for reference, ChEMBL document CHEMBL3433997 is where these values come from.
